Across several studies, molecules have been characterized by their pIC50 on 11-beta-hydroxysteroid dehydrogenase 1 (Homo sapiens); a selection follows.
pIC50: −log10 of the molar value.

C=C(C)C[C@]1(c2ccccc2)CCCN([C@@H](C)c2ccc(-c3ccn(C)c(=O)c3)cc2)C(=O)N1
> 7.00
CN(Cc1ccccc1F)C(=O)N1CCC2(CC1)CC(CC(=O)O)c1cccc(Br)c12 (stereo not shown)
> 7.00
NC(=O)CC1CC2(CCN(C(=O)/C=C/c3ccccc3C(F)(F)F)CC2)c2cc(F)ccc21 (racemic)
> 7.00
COc1ccc2c(c1)CCNC21CCN(C(=O)Cc2ccccc2C(F)(F)F)CC1
> 7.00

Per the record, Cc1cnc2cc(C(=O)N3CCc4ncsc4CC3)nn2c1 has pIC50 of < 5.00

Per the record, NC(=O)C12CC3CC(C1)C(NC(=O)C1(CNS(=O)(=O)c4ccco4)CC1)C(C3)C2 (stereo not shown) has pIC50 of 6.88

Per the record, CCC1(C)SC(NC23CC4CC(CC(C4)C2)C3)=NC1=O (stereo not shown) has pIC50 of > 7.70
